# assay-overview: Phase 1 single/multiple ascending dose and food effect trial, pharmacokinetics
# Format: in vivo, human
# stated-conditions: human, plasma, po, healthy adults; read-out: time to observed maximum concentration (tmax)
parameter: Tmax

Asked: Using the record for CCOC(F)(F)c1nnc2cnc(-c3cnc(OCC(F)(F)F)c(F)c3)cn12 , report its Tmax.
Given back: 2 to 3 h

====

# assay-overview: in vivo
# stated-conditions: male, CD-1, mouse, plasma (free concentration), oral
parameter: EC50 (nM)
Numbers only, in nM.

Asked: Using the record for CCOC(F)(F)c1nnc2cnc(-c3cnc(OCC(F)(F)F)c(F)c3)cn12 , report its EC50.
Given back: 309

====

# assay-overview: Half-life of Compound 1 as stated in dosing guidance of Example 13
# stated-conditions: human, in vivo
parameter: half-life

Asked: Using the record for CCOC(F)(F)c1nnc2cnc(-c3cnc(OCC(F)(F)F)c(F)c3)cn12 , report its half-life.
Given back: ~4 days

Where do the numbers come from? From patent US20250312338A1.
